# Tested on: Salmonella typhimurium TA98
# Assay: Ames test (reverse mutation test), TA98
# Assay type: cell-based
# Experimental setup: S9 Mix -; dose 1667 µg/plate
Examples of compounds with documented Number of revertant colonies TA98 follow.
# answer = number (no unit)

{"columns": ["Compound", "Number of revertant colonies TA98"],
 "data": [
  ["Cc1cccc(-n2nc(N)cc2-c2cccc(OC(F)(F)F)c2)c1 [Metabolite H]", 17],
  ["Cc1ccc(-n2nc(N)cc2-c2cccc(OCC(F)(F)F)c2)cc1 [Metabolite F]", 6],
  ["Nc1cc(-c2cccc(OC(F)(F)F)c2)n(-c2cccc(F)c2)n1 [Metabolite G]", 8],
  ["CC(C)(OCc1cc(F)cc(-c2cc(N)nn2-c2ccc(F)cc2)c1)C(F)(F)F [Metabolite D]", 23]
]}

Next:
### Prompt Any idea what its Number of revertant colonies TA98 is? The compound is Nc1cc(-c2cccc(OCC(F)(F)F)c2)n(-c2ccc(F)cc2)n1 [Metabolite E]
### Response 6

---

Recorded Number of revertant colonies TA98, one value per entry.
# System: Salmonella typhimurium TA98
# Assay: Ames test (reverse mutation test), TA98
# Assay type: cell-based
# Experimental setup: S9 Mix +; dose 2.3 µg/plate
# Procedure: The solvent used herein was dimethyl sulfoxide (DMSO, 100 µL/plate). The mixtures were preincubated at 37° C. for 20 minutes while shaking. […] Two plates per treatment were used.
// keep it numeric: no unit symbol after the value

{"columns": ["Compound", "Value"],
 "data": [
  ["Cc1ccc(-n2nc(N)cc2-c2cccc(OCC(F)(F)F)c2)cc1 [Metabolite F]", 93],
  ["Nc1cc(-c2cccc(OC(F)(F)F)c2)n(-c2cccc(F)c2)n1 [Metabolite G]", 35],
  ["Cc1cccc(-n2nc(N)cc2-c2cccc(OC(F)(F)F)c2)c1 [Metabolite H]", 56]
]}

Alright, here's another compound for you.
### Prompt Returns the measured Number of revertant colonies TA98 for the input compound. Input: Nc1cc(-c2cccc(OCC(F)(F)F)c2)n(-c2ccc(F)cc2)n1 [Metabolite E]
### Response 589

---

# Tested on: Salmonella typhimurium TA1537
# Assay: Ames test (reverse mutation test), TA1537
# Assay type: cell-based
# Experimental setup: S9 Mix +; dose 21 µg/plate
The entries below are paired with their reported Number of revertant colonies TA1537.
Just the number, please.

// below: answered molecules
{"columns": ["Molecule", "Number of revertant colonies TA1537"],
 "data": [
  ["Cc1ccc(-n2nc(N)cc2-c2cccc(OCC(F)(F)F)c2)cc1 [Metabolite F]", 157],
  ["Nc1cc(-c2cccc(OC(F)(F)F)c2)n(-c2cccc(F)c2)n1 [Metabolite G]", 16],
  ["Nc1cc(-c2cccc(OCC(F)(F)F)c2)n(-c2ccc(F)cc2)n1 [Metabolite E]", 180]
]}

### Prompt // Number of revertant colonies TA1537 lookup, key: Cc1cccc(-n2nc(N)cc2-c2cccc(OC(F)(F)F)c2)c1 [Metabolite H]
### Response 26

---

# Tested on: Salmonella typhimurium TA98
# Assay: Ames test (reverse mutation test), TA98
# Format: cell-based
# Experimental setup: S9 Mix +; dose 5000 µg/plate
Observed property: Number of revertant colonies TA98
Would you mind answering with just the numeric figure?

{"columns": ["Compound", "Observed property", "Value"],
 "data": [
  ["Cc1cccc(-n2nc(N)cc2-c2cccc(OC(F)(F)F)c2)c1 [Metabolite H]", "Number of revertant colonies TA98", 20]
]}

### Prompt # get_value(readout='Number of revertant colonies TA98', item= Cc1ccc(-n2nc(N)cc2-c2cccc(OCC(F)(F)F)c2)cc1 [Metabolite F] )
### Response 0

### Prompt What about this compound? Nc1cc(-c2cccc(OCC(F)(F)F)c2)n(-c2ccc(F)cc2)n1 [Metabolite E]
### Response 12

### Prompt # repeat for Nc1cc(-c2cccc(OC(F)(F)F)c2)n(-c2cccc(F)c2)n1 [Metabolite G]
### Response 0

---

Number of revertant colonies TA1537 values for the compounds below.
# Tested on: Salmonella typhimurium TA1537
# Assay: Ames test (reverse mutation test), TA1537
# Format: cell-based
# Experimental setup: S9 Mix +; dose 185 µg/plate
A bare number is all that is needed in reply.

Solved cases below.
{"columns": ["Compound", "Experimental target", "Number of revertant colonies TA1537"],
 "data": [
  ["Nc1cc(-c2cccc(OCC(F)(F)F)c2)n(-c2ccc(F)cc2)n1 [Metabolite E]", "Salmonella typhimurium TA1537", 85],
  ["Nc1cc(-c2cccc(OC(F)(F)F)c2)n(-c2cccc(F)c2)n1 [Metabolite G]", "Salmonella typhimurium TA1537", 13],
  ["Cc1cccc(-n2nc(N)cc2-c2cccc(OC(F)(F)F)c2)c1 [Metabolite H]", "Salmonella typhimurium TA1537", 18]
]}

Now for a further compound.
### Prompt I have this compound here, Cc1ccc(-n2nc(N)cc2-c2cccc(OCC(F)(F)F)c2)cc1 [Metabolite F] , and I need its recorded Number of revertant colonies TA1537.
### Response 151

---

# Test system: Salmonella typhimurium TA1537
# Assay: Ames test (reverse mutation test), TA1537
# Assay type: cell-based
# Experimental setup: S9 Mix +; dose 6.9 µg/plate
Observed property: Number of revertant colonies TA1537
The answer should be a number; do not append a unit.

Guide cases for Number of revertant colonies TA1537, answers given:
{"columns": ["Compound", "Number of revertant colonies TA1537"],
 "data": [
  ["Nc1cc(-c2cccc(OC(F)(F)F)c2)n(-c2cccc(F)c2)n1 [Metabolite G]", 13],
  ["Cc1cccc(-n2nc(N)cc2-c2cccc(OC(F)(F)F)c2)c1 [Metabolite H]", 15],
  ["Nc1cc(-c2cccc(OCC(F)(F)F)c2)n(-c2ccc(F)cc2)n1 [Metabolite E]", 227]
]}

Okay, now this compound:
### Prompt I would be grateful if you could share the reported Number of revertant colonies TA1537 for Cc1ccc(-n2nc(N)cc2-c2cccc(OCC(F)(F)F)c2)cc1 [Metabolite F] .
### Response 92

---

In this section we review reported Number of revertant colonies WP2uvrA values for a set of compounds.
# Tested on: Escherichia coli WP2uvrA
# Assay: Ames test (reverse mutation test), WP2uvrA
# Type: cell-based
# Experimental setup: S9 Mix +; dose 1667 µg/plate
# Procedure: The solvent used herein was dimethyl sulfoxide (DMSO, 100 µL/plate). The mixtures were preincubated at 37° C. for 20 minutes while shaking. […] Two plates per treatment were used.
Just the number, please, no unit after it.

{"columns": ["Compound", "Observed property", "Value"],
 "data": [
  ["Nc1cc(-c2cccc(OC(F)(F)F)c2)n(-c2cccc(F)c2)n1 [Metabolite G]", "Number of revertant colonies WP2uvrA", 9],
  ["Cc1cccc(-n2nc(N)cc2-c2cccc(OC(F)(F)F)c2)c1 [Metabolite H]", "Number of revertant colonies WP2uvrA", 19],
  ["Cc1ccc(-n2nc(N)cc2-c2cccc(OCC(F)(F)F)c2)cc1 [Metabolite F]", "Number of revertant colonies WP2uvrA", 16]
]}

### Prompt Quick one: Number of revertant colonies WP2uvrA for Nc1cc(-c2cccc(OCC(F)(F)F)c2)n(-c2ccc(F)cc2)n1 [Metabolite E] ?
### Response 13

---

# Test system: Salmonella typhimurium TA100
# Assay: Ames test (reverse mutation test), TA100
# Type: cell-based
# Experimental setup: S9 Mix +; dose 185 µg/plate
Here, each record is paired with measured Number of revertant colonies TA100 data.
Could you keep your reply to the number by itself?

{"columns": ["Compound", "Experimental target", "Number of revertant colonies TA100"],
 "data": [
  ["Nc1cc(-c2cccc(OCC(F)(F)F)c2)n(-c2ccc(F)cc2)n1 [Metabolite E]", "Salmonella typhimurium TA100", 1799],
  ["Cc1ccc(-n2nc(N)cc2-c2cccc(OCC(F)(F)F)c2)cc1 [Metabolite F]", "Salmonella typhimurium TA100", 2889],
  ["Nc1cc(-c2cccc(OC(F)(F)F)c2)n(-c2cccc(F)c2)n1 [Metabolite G]", "Salmonella typhimurium TA100", 380]
]}

### Prompt Suppose we examine the compound Cc1cccc(-n2nc(N)cc2-c2cccc(OC(F)(F)F)c2)c1 [Metabolite H] ; what Number of revertant colonies TA100 value has been reported?
### Response 722

---

# reported Number of revertant colonies TA98; entries follow
# System: Salmonella typhimurium TA98
# Assay: Ames test (reverse mutation test), TA98
# Assay type: cell-based
# Experimental setup: S9 Mix +; dose 1667 µg/plate
API note: the answer field is a bare number with no unit suffix.

# example entries with known answers
{"columns": ["Compound", "Observed property", "Value"],
 "data": [
  ["Cc1ccc(-n2nc(N)cc2-c2cccc(OCC(F)(F)F)c2)cc1 [Metabolite F]", "Number of revertant colonies TA98", 61],
  ["Nc1cc(-c2cccc(OCC(F)(F)F)c2)n(-c2ccc(F)cc2)n1 [Metabolite E]", "Number of revertant colonies TA98", 15],
  ["Nc1cc(-c2cccc(OC(F)(F)F)c2)n(-c2cccc(F)c2)n1 [Metabolite G]", "Number of revertant colonies TA98", 11]
]}

Now consider a different compound.
### Prompt What value of measured Number of revertant colonies TA98 is listed for Cc1cccc(-n2nc(N)cc2-c2cccc(OC(F)(F)F)c2)c1 [Metabolite H] ?
### Response 48

Each recorded value in this set is attributed to patent US20230210831A1.
